# assayInfo: Body weight of mice in the in vivo study (tolerability)
# particulars: Day 5; female SWISS mice, 1 μg LNP-formulated saRNA intramuscularly

molecule	readingUnit	Weight
CCCCCCC(CCCC)C(=O)OCCCCN(CCCCOC(=O)C(CCCC)CCCCCC)CCN1CCN(CCNCCN)CC1 (centres unmarked)	g	27.10
CCCCCCCCCCCCCCOC(=O)CCN(CCC(=O)OCCCCCCCCCCCCCC)CCN1CCN(CCN(CCC(=O)OCCCCCCCCCCCCCC)CCC(=O)OCCCCCCCCCCCCCC)CC1 [Comparator 1 (C1), reference compound]	g	27.59
CCCCCCC(CCCC)C(=O)OCCCCN(CCCCOC(=O)C(CCCC)CCCCCC)CCN1CCN(CCO)CC1 (centres unmarked)	g	27.90
CCCCCCCCCCC(O)CN(CCN1CCN(CCN(CC(O)CCCCCCCCCC)CC(O)CCCCCCCCCC)CC1)CCN(CC(O)CCCCCCCCCC)CC(O)CCCCCCCCCC (centres unmarked) [Compound C12-200, reference compound]	g	28.98
CCCCCCC(CCCC)C(=O)OCCCCN(CCCCOC(=O)C(CCCC)CCCCCC)CCN1CCN(CCN)CC1 (centres unmarked)	g	28.13

This collection of values is drawn from patent US20250025429A1.
